Hello, the source for this data is patent US20260265238A1, in case you need it.

target under test: SMARCA2-HiBiT HeLa cells (protein which is expressed from the SMARCA2 gene) (Homo sapiens, UniProt P51531)
Construct: protein which is expressed from the SMARCA2 and SMARCA4 genes; host or cells: HeLa (SMARCA2-HiBiT engineered line)
Sequence (P51531 whole entry): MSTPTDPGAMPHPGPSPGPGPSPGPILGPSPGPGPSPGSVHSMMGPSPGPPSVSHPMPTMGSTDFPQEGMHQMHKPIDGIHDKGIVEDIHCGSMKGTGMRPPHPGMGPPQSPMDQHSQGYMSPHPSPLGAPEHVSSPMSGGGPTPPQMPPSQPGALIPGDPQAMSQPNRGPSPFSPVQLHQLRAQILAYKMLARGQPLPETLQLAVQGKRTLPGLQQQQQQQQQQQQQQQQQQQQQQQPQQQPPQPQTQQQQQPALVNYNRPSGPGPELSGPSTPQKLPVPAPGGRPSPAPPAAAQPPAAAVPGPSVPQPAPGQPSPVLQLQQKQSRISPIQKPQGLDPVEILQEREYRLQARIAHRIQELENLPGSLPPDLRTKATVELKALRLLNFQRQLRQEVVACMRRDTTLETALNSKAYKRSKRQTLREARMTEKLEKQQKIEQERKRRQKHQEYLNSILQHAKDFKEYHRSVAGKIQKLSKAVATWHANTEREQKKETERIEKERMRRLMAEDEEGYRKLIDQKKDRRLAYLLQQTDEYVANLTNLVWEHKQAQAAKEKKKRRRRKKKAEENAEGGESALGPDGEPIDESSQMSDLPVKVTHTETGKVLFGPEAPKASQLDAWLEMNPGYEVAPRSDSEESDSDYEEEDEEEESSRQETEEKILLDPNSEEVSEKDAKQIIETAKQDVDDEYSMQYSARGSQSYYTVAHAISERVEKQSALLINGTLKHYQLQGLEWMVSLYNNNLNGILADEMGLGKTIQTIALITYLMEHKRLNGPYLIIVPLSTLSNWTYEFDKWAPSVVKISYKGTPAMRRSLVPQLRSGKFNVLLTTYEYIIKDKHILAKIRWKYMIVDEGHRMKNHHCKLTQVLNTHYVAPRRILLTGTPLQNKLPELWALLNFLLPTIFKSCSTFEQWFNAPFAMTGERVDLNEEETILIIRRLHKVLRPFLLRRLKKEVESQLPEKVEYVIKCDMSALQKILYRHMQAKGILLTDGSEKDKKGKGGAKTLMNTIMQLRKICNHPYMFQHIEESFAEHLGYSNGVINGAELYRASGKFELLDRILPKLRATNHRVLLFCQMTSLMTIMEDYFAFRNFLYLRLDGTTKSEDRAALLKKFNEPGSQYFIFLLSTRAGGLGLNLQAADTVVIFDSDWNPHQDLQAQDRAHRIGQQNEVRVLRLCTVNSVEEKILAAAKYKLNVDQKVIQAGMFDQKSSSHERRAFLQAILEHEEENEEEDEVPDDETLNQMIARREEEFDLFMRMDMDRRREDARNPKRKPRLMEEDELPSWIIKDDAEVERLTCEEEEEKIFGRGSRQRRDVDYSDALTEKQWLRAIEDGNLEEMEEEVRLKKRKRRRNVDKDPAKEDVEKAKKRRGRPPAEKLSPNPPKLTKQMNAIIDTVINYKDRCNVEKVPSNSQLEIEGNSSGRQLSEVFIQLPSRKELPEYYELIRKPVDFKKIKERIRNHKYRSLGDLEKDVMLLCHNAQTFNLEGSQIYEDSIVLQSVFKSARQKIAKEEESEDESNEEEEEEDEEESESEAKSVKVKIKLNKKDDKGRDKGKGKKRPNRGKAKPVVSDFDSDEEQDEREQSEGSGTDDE
assay protocol: SMARCA2 degradation assay (HiBiT-fusion HeLa cell line, 24 h, luminescence)
Type: cell-based
condition info: @ 1 μM
endpoint name: SMARCA2 % Degradation @ 1 μM

Worked set:
Nc1nnc(-c2ccccc2O)cc1N1CCCN(c2ccnc(/C=C/CNC(=O)c3cc4ncccn4n3)n2)CC1 | +++ (+++=>70%)
CC1(C)CN(CC#Cc2nccc(N3CCCN(c4cc(-c5ccccc5O)nnc4N)CC3)n2)CCO1 | ++ (++=30-70%)
CN(C)CC#Cc1nccc(N2CCCC(c3cc(-c4ccccc4O)nnc3N)CC2)n1 (stereo not shown) | ++ (++=30-70%)
C[C@@H]1CN(CC#Cc2nccc(N3CCCN(c4cc(-c5ccccc5O)nnc4N)CC3)n2)CCO1 | ++ (++=30-70%)
CC(C)(C)OC(=O)NCC#Cc1nccc(NC2CN(c3cc(-c4ccccc4O)nnc3N)C2)n1 | ++ (++=30-70%)

Look up and report measured SMARCA2 % Degradation @ 1 μM for this entry: C[C@@H]1CCN(c2cc(-c3ccccc3O)nnc2N)CCN1c1ccnc(C#CCNC(=O)OC(C)(C)C)n1
+++ (+++=>70%)

* * *

target under test: SMARCA4-HiBiT HeLa cells (protein which is expressed from the SMARCA4 gene) (Homo sapiens)
Construct: protein which is expressed from the SMARCA2 and SMARCA4 genes; host or cells: HeLa (SMARCA4-HiBiT engineered line)
assay protocol: SMARCA4 degradation assay (HiBiT-fusion HeLa cell line, 24 h, luminescence)
Assay type: cell-based
For each entry below, report its DC50 value.

Report value: DC50, system: SMARCA4-HiBiT HeLa cells (protein which is expressed from the SMARCA4 gene) (Homo sapiens), molecule: C[C@H]1COC[C@H](C)N1CC#Cc1nccc(N2CCCN(c3cc(-c4ccccc4O)nnc3N)CC2)n1 [Compound P-305]
50 to 500 nM

Please tell me the measured DC50 for Nc1nnc(-c2ccccc2O)cc1N1CC2CCC(C1)N2c1ccnc(C#CCNc2ncco2)n1 [Compound P-106] ; system: SMARCA4-HiBiT HeLa cells (protein which is expressed from the SMARCA4 gene) (Homo sapiens).
500 to 5000 nM

Supply DC50 measured with SMARCA4-HiBiT HeLa cells (protein which is expressed from the SMARCA4 gene) (Homo sapiens) for NCC#Cc1nccc(N2CCC3(CCCN(c4cc(-c5ccccc5O)nnc4N)C3)CC2)n1 [Compound P-89] .
500 to 5000 nM

Look up SMARCA4-HiBiT HeLa cells (protein which is expressed from the SMARCA4 gene) (Homo sapiens) data: DC50 of CNCC#Cc1nccc(N2C3CCC2CN(c2cc(-c4ccccc4O)nnc2N)C3)n1 [Compound P-291] , then report it.
50 to 500 nM

* * *

target under test: SMARCA4-HiBiT HeLa cells (protein which is expressed from the SMARCA4 gene) (Homo sapiens, UniProt P51532)
Construct: protein which is expressed from the SMARCA2 and SMARCA4 genes; host or cells: HeLa (SMARCA4-HiBiT engineered line)
Sequence (P51532 whole entry): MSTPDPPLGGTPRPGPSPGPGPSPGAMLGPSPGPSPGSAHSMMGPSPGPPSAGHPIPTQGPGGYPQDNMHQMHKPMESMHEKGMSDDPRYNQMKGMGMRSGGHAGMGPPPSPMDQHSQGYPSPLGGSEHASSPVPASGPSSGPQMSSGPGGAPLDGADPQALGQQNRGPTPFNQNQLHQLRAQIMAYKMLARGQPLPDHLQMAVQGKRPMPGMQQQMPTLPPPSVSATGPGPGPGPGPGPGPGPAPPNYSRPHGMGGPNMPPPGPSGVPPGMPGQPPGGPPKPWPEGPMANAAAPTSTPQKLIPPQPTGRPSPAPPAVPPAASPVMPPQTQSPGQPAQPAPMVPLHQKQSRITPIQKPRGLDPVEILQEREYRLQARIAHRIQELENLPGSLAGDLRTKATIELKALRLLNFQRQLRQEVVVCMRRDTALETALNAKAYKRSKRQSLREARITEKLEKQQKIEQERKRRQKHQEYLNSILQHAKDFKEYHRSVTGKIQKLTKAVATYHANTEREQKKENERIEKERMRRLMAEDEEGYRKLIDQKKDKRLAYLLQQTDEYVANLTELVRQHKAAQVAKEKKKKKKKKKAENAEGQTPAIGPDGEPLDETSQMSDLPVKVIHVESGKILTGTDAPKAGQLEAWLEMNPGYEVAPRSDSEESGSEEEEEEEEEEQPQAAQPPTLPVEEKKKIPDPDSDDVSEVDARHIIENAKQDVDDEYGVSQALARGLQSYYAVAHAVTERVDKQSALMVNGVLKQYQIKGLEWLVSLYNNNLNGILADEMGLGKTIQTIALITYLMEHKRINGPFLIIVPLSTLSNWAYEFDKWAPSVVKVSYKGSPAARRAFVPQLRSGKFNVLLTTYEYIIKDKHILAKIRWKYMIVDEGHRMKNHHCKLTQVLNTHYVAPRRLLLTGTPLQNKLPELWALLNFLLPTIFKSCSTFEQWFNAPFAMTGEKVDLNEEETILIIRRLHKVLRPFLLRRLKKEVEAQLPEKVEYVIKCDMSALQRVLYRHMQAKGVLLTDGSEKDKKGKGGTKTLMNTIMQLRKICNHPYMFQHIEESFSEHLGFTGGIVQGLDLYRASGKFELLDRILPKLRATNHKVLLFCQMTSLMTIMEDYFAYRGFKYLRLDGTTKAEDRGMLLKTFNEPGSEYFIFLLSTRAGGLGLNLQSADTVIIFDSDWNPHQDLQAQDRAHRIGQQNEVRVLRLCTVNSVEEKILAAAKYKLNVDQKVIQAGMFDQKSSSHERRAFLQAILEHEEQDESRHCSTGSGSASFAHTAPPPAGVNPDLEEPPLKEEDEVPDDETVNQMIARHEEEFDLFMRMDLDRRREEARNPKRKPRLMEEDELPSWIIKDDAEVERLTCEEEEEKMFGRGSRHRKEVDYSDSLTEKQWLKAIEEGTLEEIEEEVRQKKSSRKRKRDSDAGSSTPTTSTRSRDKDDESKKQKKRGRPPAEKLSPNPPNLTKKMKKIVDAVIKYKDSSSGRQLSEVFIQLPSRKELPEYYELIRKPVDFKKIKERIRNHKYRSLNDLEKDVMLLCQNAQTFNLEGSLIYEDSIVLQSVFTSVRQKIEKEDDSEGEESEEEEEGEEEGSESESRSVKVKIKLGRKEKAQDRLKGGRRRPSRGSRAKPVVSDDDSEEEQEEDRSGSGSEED
assay protocol: SMARCA4 degradation assay (HiBiT-fusion HeLa cell line, 24 h, luminescence)
Type: cell-based
condition info: @ 1 μM
endpoint name: inhibition at 1 µM

Answer with the recorded inhibition at 1 µM of Nc1nnc(-c2ccccc2O)cc1N1CCN(c2ccnc(C#CCNC(=O)c3cnn4ccccc34)n2)CC1 [Compound P-65] only.
30 to 70%

Supply reported inhibition at 1 µM belonging to this compound: C[C@H]1COCCN1CC#Cc1nccc(N2CCCN(c3cc(-c4ccccc4O)nnc3N)CC2)n1 [Compound P-316]
< 30%

Supply measured inhibition at 1 µM of Nc1nnc(-c2ccccc2O)cc1N1CCC2(CCN(c3ccnc(C#CCN4CC5CC4C5)n3)CC2)C1 [Compound P-187] in your reply.
30 to 70%

Look up and state reported inhibition at 1 µM for Nc1nnc(-c2ccccc2O)cc1N1CCN(c2ccnc(C#CCCCNC(=O)c3cc4ncccn4n3)n2)CC1 [Compound P-92]
30 to 70%

Give reported inhibition at 1 µM value for Cc1nn2ccn(CC#Cc3nccc(N4C5CCC4CN(c4cc(-c6ccccc6O)nnc4N)C5)n3)c(=O)c2c1C [Compound P-103]
30 to 70%

Supply measured inhibition at 1 µM of Cc1c(C(=O)NCC#Cc2nccc(N3CCN(c4cc(-c5ccccc5O)nnc4N)CC3)n2)nn(C)c1C [Compound P-8] in your reply.
30 to 70%

Assign inhibition at 1 µM to the following record: Nc1nnc(-c2ccccc2O)cc1N1C2CCC1CN(c1ccnc(C#CCCNC(=O)c3cc4ncccn4n3)n1)C2 [Compound P-22]
30 to 70%

Respond only with inhibition at 1 µM recorded for Nc1nnc(-c2ccccc2O)cc1N1CC2(CCN(c3ccnc(C#CCNC(=O)c4cc5ncccn5n4)n3)CC2)C1 [Compound P-31]
30 to 70%

State its inhibition at 1 µM for this compound: C[C@@H]1CCN(c2cc(-c3ccccc3O)nnc2N)CCN1c1ccnc(C#CCN2CC(F)(F)[C@@H]2C)n1 [Compound P-270]
30 to 70%

Give recorded inhibition at 1 µM. CC1(C)COCCN1CC#Cc1nccc(N2CCCN(c3cc(-c4ccccc4O)nnc3N)CC2)n1 [Compound P-317]
< 30%

Quickly give me recorded inhibition at 1 µM for N#CC1CN(CC#Cc2nccc(N3CCCN(c4cc(-c5ccccc5O)nnc4N)CC3)n2)CCO1 (stereo not drawn) [Compound P-310]
30 to 70%

Report measured inhibition at 1 µM; entry is C[C@@H]1CCN(c2cc(-c3ccccc3O)nnc2N)CCN1c1ccnc(C#CCn2cccn2)n1 [Compound P-332]
< 30%

State its inhibition at 1 µM for this compound: Nc1nnc(-c2ccccc2O)cc1N1CCCN(c2ccnc(C#CCNc3cc4ncccn4n3)n2)CC1 [Compound P-120]
30 to 70%

Return inhibition at 1 µM for the following compound: CNCC#Cc1nccc(N2C3CCC2CN(c2cc(-c4ccccc4O)nnc2N)C3)n1 [Compound P-291]
< 30%

Given the compound Nc1nnc(-c2ccccc2O)cc1N1CCCN(c2ccnc(/C=C/CNC(=O)c3cc4ncccn4n3)n2)CC1 [Compound P-112] , write its reported inhibition at 1 µM.
> 70%

* * *

target under test: SMARCA2-HiBiT HeLa cells (protein which is expressed from the SMARCA2 gene) (Homo sapiens)
Construct: protein which is expressed from the SMARCA2 and SMARCA4 genes; host or cells: HeLa (SMARCA2-HiBiT engineered line)
assay protocol: SMARCA2 degradation assay (HiBiT-fusion HeLa cell line, 24 h, luminescence)
Format: cell-based
endpoint name: DC50

Tell me its DC50 given Nc1nnc(-c2ccccc2O)cc1N1CCC2(CCN(c3ccnc(C#CCN4CC5CC4C5)n3)CC2)C1 as the entry.
50 to 500 nM

// Input: C[C@@H]1CCN(c2cc(-c3ccccc3O)nnc2N)CCN1c1ccnc(C#CCNC(=O)c2cc3ncccn3n2)n1 . Output its DC50 only.
50 to 500 nM

Output measured DC50 for this item: C[C@@H]1CCN(c2cc(-c3ccccc3O)nnc2N)CCN1c1ccnc(C#CCn2cncn2)c1
50 to 500 nM

Specify measured DC50 for Nc1nnc(-c2ccccc2O)cc1N1CCCN(c2ccnc(C#CCn3ccc4ccccc43)n2)CC1 .
50 to 500 nM

Annotate the molecule C[C@@H]1CCN(c2cc(-c3ccccc3O)nnc2N)CCN1c1ccnc(/C=C/CN2CCOCC2)n1 with its measured DC50.
< 50 nM

Look up and report measured DC50 for this entry: CC1(C)CN(c2ccnc(C#CCNC(=O)c3cc4ncccn4n3)n2)CCN1c1cc(-c2ccccc2O)nnc1N
500 to 5000 nM

Find the measured DC50 of CC(C)(C)OC(=O)NCC#Cc1nccc(NC2CN(c3cc(-c4ccccc4O)nnc3N)C2)n1 and report it.
50 to 500 nM

* * *

target under test: SMARCA4-HiBiT HeLa cells (protein which is expressed from the SMARCA4 gene) (Homo sapiens, UniProt P51532)
Construct: protein which is expressed from the SMARCA2 and SMARCA4 genes; host or cells: HeLa (SMARCA4-HiBiT engineered line)
assay protocol: SMARCA4 degradation assay (HiBiT-fusion HeLa cell line, 24 h, luminescence)
Type: cell-based
condition info: @ 1 μM
Kindly supply the reported inhibition at 1 µM values for the records listed here.

Output inhibition at 1 µM of Nc1nnc(-c2ccccc2O)cc1N1CCN(c2ccnc(C#CCNC(=O)c3cnn4cccc(F)c34)n2)CC1
30 to 70%

Please list inhibition at 1 µM recorded for the molecule Nc1nnc(-c2ccccc2O)cc1N1CCN(c2ccnc(C#CCNC(=O)c3cccnc3)n2)CC1
< 30%

For the molecule Nc1nnc(-c2ccccc2O)cc1N1CCC2(CCN(c3ccnc(C#CCNC(=O)c4cc5ncccn5n4)n3)C2)CC1 , give its reported inhibition at 1 µM.
30 to 70%

Fill in reported inhibition at 1 µM for this entry: C[C@@H]1CCN(c2cc(-c3ccccc3O)nnc2N)CCN1c1ccnc(C#CCNc2ccn(C)n2)n1
< 30%

Read the entry Nc1nnc(-c2ccccc2O)cc1N1CCN(c2ccnc(C#CCNC(=O)c3cc4n(n3)CCCO4)n2)CC1 and write its reported inhibition at 1 µM.
30 to 70%

Determine its reported inhibition at 1 µM: Cc1c(C(=O)NCC#Cc2nc(N(C)C)cc(N3CCCN(c4cc(-c5ccccc5O)nnc4N)CC3)n2)nn(C)c1C
30 to 70%

Supply measured inhibition at 1 µM of C[C@@H]1CCN(c2cc(-c3ccccc3O)nnc2N)CCN1c1ccnc(C#CC2CCCCN2C)n1 (stereo partly shown) in your reply.
30 to 70%

Quick one: give measured inhibition at 1 µM for Nc1nnc(-c2ccccc2O)cc1N1CCN(c2ccnc(C#CCNC(=O)c3cc4ncccn4n3)n2)CC(F)C1 (stereo not shown)
30 to 70%

Determine from records and report inhibition at 1 µM for CC(C)(C)OC(=O)NC/C=C/c1nccc(N2CCCN(c3cc(-c4ccccc4O)nnc3N)CC2)n1
30 to 70%

Give the value of inhibition at 1 µM reported for the following: CC1CN(c2cc(-c3ccccc3O)nnc2N)CCCN1c1ccnc(C#CCNC(=O)c2cc3ncccn3n2)n1 (stereo not shown)
30 to 70%

State its inhibition at 1 µM for this molecule: Nc1nnc(-c2ccccc2O)cc1N1CCC2C1CCN2c1ccnc(C#CCNC(=O)c2cc3ncccn3n2)n1 (stereo not shown)
30 to 70%

Answer with reported inhibition at 1 µM of C[C@@H]1CCN(c2cc(-c3ccccc3O)nnc2N)CCN1c1ccnc(C#CC23CCC(C2)N3)n1 (stereo partly shown)
< 30%

Give recorded inhibition at 1 µM. CC1CN(c2cc(-c3ccccc3O)nnc2N)CCN1c1ccnc(C#CCNC(=O)c2cc3ncccn3n2)n1 (stereo in doubt)
30 to 70%

Given the molecule C[C@@H]1CCN(c2cc(-c3ccccc3O)nnc2N)CCN1c1ccnc(C#CCN2C[C@@H]3C[C@H]2CO3)n1 , write its reported inhibition at 1 µM.
30 to 70%

Report inhibition at 1 µM, nothing else, for this molecule: Nc1nnc(-c2cc(F)ccc2O)cc1N1CCCN(c2ccnc(C#CCNC(=O)c3cc4ncccn4n3)n2)CC1
< 30%

Consider the molecule Nc1nnc(-c2ccccc2O)cc1N1CCCC2(CCN(c3ccnc(C#CCNC(=O)c4cc5ncccn5n4)n3)CC2)C1 . State its measured inhibition at 1 µM.
30 to 70%

Return reported inhibition at 1 µM. Input molecule: Nc1nnc(-c2ccccc2O)cc1N1CCC2(CCCN(c3ccnc(C#CCO)n3)C2)CC1
30 to 70%

Report measured inhibition at 1 µM; entry is C[C@@H]1CCN(c2cc(-c3ccccc3O)nnc2N)CCN1c1ccnc(C#CCn2cccc2)n1
30 to 70%

Quickly give me recorded inhibition at 1 µM for CC(C)(C)OC(=O)NC1CCN(CC#Cc2nccc(N3CCCN(c4cc(-c5ccccc5O)nnc4N)CC3)n2)CC1
> 70%

Give the value of inhibition at 1 µM reported for the following: C[C@@H]1COC[C@H](C)N1CC#Cc1nccc(N2CCCN(c3cc(-c4ccccc4O)nnc3N)CC2)n1
30 to 70%

Return inhibition at 1 µM for the following molecule: Nc1nnc(-c2ccccc2O)cc1N1CCN(c2ccnc(C#CCNC(=O)c3cc4n(n3)CCOC4)n2)CC1
30 to 70%

Please list inhibition at 1 µM recorded for the molecule CNC/C=C/c1nccc(N2CCN(c3cc(-c4ccccc4O)nnc3N)CC[C@H]2C)n1
30 to 70%

Give the value of inhibition at 1 µM reported for the following: C[C@@H]1CCN(c2cc(-c3ccccc3O)nnc2N)CCN1c1ccnc(C#CCN2CCC(C)(F)C2)n1 (stereo partly shown)
30 to 70%

Supply reported inhibition at 1 µM belonging to this molecule: Cc1cc(C)n(CC#Cc2nccc(N3CCN(c4cc(-c5ccccc5O)nnc4N)CC[C@H]3C)n2)n1
< 30%

Provide measured inhibition at 1 µM value, entry: Cc1nn2ccn(CC#Cc3nccc(N4CCCN(c5cc(-c6ccccc6O)nnc5N)CC4)n3)c(=O)c2c1C
30 to 70%

Return value of inhibition at 1 µM for input Nc1nnc(-c2ccccc2O)cc1N1CCCN(c2ccnc(C#CCn3cccn3)n2)CC1 , no commentary.
30 to 70%

Determine its reported inhibition at 1 µM: CC1(C)CN(CC#Cc2nccc(N3CCCN(c4cc(-c5ccccc5O)nnc4N)CC3)n2)CCO1
30 to 70%

Report measured inhibition at 1 µM; entry is C[C@H]1COC[C@H](C)N1CC#Cc1nccc(N2CCCN(c3cc(-c4ccccc4O)nnc3N)CC2)n1
30 to 70%
